Biological target: T1, human EphB1 (Homo sapiens, UniProt P54762)
T1 construct: a protein of the extracellular region of each human Eph receptor fused with the SEAP protein and the His tag; made in house; host or cells: Expi293F cells (culture supernatant)
T1 sequence (P54762 18-540 limits assumed): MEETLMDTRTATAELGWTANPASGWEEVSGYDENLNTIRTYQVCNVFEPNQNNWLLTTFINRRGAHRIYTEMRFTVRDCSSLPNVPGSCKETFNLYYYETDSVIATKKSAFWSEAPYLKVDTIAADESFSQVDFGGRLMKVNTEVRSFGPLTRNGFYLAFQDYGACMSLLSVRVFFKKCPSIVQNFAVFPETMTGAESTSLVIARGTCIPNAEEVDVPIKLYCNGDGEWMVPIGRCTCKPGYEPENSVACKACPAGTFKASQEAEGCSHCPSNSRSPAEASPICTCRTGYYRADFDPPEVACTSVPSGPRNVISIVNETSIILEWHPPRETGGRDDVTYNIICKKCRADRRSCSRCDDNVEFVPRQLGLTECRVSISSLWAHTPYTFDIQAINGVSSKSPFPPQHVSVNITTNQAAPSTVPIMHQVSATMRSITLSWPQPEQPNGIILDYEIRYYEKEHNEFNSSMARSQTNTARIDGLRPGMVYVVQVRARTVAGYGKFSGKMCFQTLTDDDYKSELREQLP
Test: Selectivity ELISA of humanized antibodies for human Eph receptor
Assay type: binding
Details: coated protein 1 nM
READOUT LABEL: hEphB1-SEAP-: absorbance at 450 nm, percentage with respect to hEphA4-SEAP-His as 100% (%)
Reply numerically in %, unit not repeated.

Query block: So what's the measured hEphB1-SEAP-: absorbance at 450 nm, percentage with respect to hEphA4-SEAP-His as 100% for this one? 81 (antibody, V domains shown, constant regions without entry; synthetic humanized antibody light chain variable region sequence; synthetic humanized antibody heavy chain variable region sequence) VL: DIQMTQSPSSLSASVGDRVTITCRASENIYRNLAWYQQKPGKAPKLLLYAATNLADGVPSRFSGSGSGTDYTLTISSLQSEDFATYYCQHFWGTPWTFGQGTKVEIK VH: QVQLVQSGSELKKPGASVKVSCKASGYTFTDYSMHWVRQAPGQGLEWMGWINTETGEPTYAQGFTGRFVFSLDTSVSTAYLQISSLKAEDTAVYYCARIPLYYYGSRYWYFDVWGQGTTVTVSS
Result block: 4.9
